Kindly state PBM binding z-score for each of the entries shown.
System: VDR homodimer (NR concentration 270 nM)
experimental-details: PBM binding z-score (relative to random genomic background probes); higher = stronger binding; sequences stand for … in GC…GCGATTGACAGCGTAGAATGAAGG
Numbers only.

Could you report PBM binding z-score for every entry in the following list?
1. CCTAGCAGGCCATTCTGGGTCACTCAAGGCTTGA
2. CCTACTGGGCCATCAGGCCATTGATATCAACGTT
3. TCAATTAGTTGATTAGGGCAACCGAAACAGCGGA
4. AGAACGAGGGCACGCTGAGTTGATAGCAGAGTAG
5. CTCGAAAGGTCGTGCTCAGTTGAGTATACCAAAC
6. ACTATTAGATGAGACGAGGGCAACCGATAGGTTG

Output:
1: 0.435; 2: -0.112; 3: 0.229; 4: 1.98; 5: 0.971; 6: 0.77

Value sought for every listed sequence: PBM binding z-score.
1. CCTTACTGGTCACTGACAGGTTATAGCATTTGGA
2. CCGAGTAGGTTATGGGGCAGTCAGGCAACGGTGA
3. TGAATGAGGTTAAAGAGCAGGGAACGTGGCGTCG
4. ACAGACAGGTGATGTAGGTAACTCAGGCTATCAT
5. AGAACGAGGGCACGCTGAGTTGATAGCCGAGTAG

Output:
0.63
-0.221
0.665
-0.512
1.57

Input: Which PBM binding z-score value is on record for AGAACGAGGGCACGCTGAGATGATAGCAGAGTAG ?
Output: 0.452

Measured values drawn from the supplement of paper PMC6555819 for this set.
